system: PPARg DBDmut:RXRa IVT, anti-PPARg (DBD mutation: PPARg1 K132A/R137A, NR concentration 270 nM, RXRa partner concentration 90 nM); assay: PBM binding z-score (relative to random genomic background probes); higher = stronger binding; sequences stand for … in GC…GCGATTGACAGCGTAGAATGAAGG
Binning scheme for PBM binding z-score: low = under -0.2, mid = from -0.2 up to 1, high = 1 and over

Solved cases (10 shown):
Entry Sequence: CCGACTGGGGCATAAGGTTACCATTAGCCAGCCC
Discrete Label: low

Entry Sequence: TGTCAAAGTACAAAGGTAACGTAAGTATCCACAC
Discrete Label: high

Entry Sequence: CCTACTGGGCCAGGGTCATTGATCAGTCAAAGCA
Discrete Label: low

Entry Sequence: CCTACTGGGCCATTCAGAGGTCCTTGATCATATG
Discrete Label: low

Entry Sequence: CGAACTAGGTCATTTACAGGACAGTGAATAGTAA
Discrete Label: high

Entry Sequence: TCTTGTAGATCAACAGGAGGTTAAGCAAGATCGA
Discrete Label: mid

Entry Sequence: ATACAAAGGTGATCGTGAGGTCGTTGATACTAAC
Discrete Label: high

Entry Sequence: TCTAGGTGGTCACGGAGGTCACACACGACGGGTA
Discrete Label: mid

Entry Sequence: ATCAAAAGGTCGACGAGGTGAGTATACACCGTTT
Discrete Label: high

Entry Sequence: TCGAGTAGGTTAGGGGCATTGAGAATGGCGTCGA
Discrete Label: low

## Task Tag the class for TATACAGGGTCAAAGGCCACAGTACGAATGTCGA
## Result high

###

system: LXRa homodimer (NR concentration 270 nM); test: PBM binding z-score (relative to random genomic background probes); higher = stronger binding; sequences stand for … in GC…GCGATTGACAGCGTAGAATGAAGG
Outcome Measure: PBM binding z-score

Take a look at these entries with their results.
Entry Sequence: CAAACTAGGTCACCGGAAGGTCAAAGGCCGCATG
PBM binding z-score: 4.23
--
Entry Sequence: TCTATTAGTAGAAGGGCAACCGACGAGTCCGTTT
PBM binding z-score: 0.0189
--
Entry Sequence: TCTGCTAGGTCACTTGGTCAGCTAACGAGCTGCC
PBM binding z-score: -0.292
--
Entry Sequence: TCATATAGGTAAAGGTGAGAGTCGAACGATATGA
PBM binding z-score: -0.322

## Task Fill in the blank: the reported PBM binding z-score of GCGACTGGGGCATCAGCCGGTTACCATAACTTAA is ____.
## Result -0.599

## Task Item under review: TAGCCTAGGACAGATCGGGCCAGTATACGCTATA . Reported PBM binding z-score?
## Result -0.706

## Task Could you tell me which PBM binding z-score is on file for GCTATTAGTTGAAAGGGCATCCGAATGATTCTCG ?
## Result 0.00348

## Task Can you look up the measured PBM binding z-score of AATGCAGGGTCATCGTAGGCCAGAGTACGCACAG for me?
## Result 1.22

## Task So what's the measured PBM binding z-score for this one? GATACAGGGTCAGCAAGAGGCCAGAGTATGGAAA
## Result -0.295

###

system: PPARg DBDmut:RXRa IVT, anti-PPARg (DBD mutation: PPARg1 K132A/R137A, NR concentration 270 nM, RXRa partner concentration 90 nM); assay: PBM binding z-score (relative to random genomic background probes); higher = stronger binding; sequences stand for … in GC…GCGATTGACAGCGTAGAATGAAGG
Would you mind labelling by PBM binding z-score? At or over 0.4 is 1 (yes), under is 0 (no).

Please review the entries below; each comes with its answer.
Entry Sequence: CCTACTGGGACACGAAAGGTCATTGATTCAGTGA
Discrete Label: 0 (no)
//
Entry Sequence: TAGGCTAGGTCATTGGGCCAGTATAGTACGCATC
Discrete Label: 0 (no)
//
Entry Sequence: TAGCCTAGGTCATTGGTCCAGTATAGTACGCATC
Discrete Label: 1 (yes)
//
Entry Sequence: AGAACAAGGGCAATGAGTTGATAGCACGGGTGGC
Discrete Label: 0 (no)
//
Entry Sequence: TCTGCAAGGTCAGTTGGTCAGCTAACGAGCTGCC
Discrete Label: 1 (yes)

## Task Please indicate if the recorded PBM binding z-score for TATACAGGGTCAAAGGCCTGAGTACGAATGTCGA meets or exceeds 0.4.
## Result 1 (yes)

## Task Quick check, PBM binding z-score >= 0.4? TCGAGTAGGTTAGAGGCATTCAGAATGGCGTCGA
## Result 0 (no)

## Task Item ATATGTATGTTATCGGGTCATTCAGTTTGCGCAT with PBM binding z-score of 0.4 or above?
## Result 1 (yes)

## Task # bool: PBM binding z-score of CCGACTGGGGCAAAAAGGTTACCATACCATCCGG >= 0.4
## Result 0 (no)

## Task Check if PBM binding z-score >= 0.4 (inclusive). Item: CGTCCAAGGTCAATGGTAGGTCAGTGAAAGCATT
## Result 0 (no)
